Quick list: IC50 per entry.
tested on: C8166; assay: Antiviral activity against HIV-1 (RF strain) in C8166 cells; format: functional, cell-based; conditions: Homo sapiens
Supply the numeric figure in µM, leaving out any unit text.

Worked cases, IC50 given:
compound=Nc1ccn([C@@H]2O[C@H](CO)C[C@@H]2F)c(=O)n1 systemtested=C8166 readingunit=µM numericvalue=0.7
compound=Cc1cn([C@@H]2O[C@H](CO)C=C2F)c(=O)[nH]c1=O systemtested=C8166 readingunit=µM numericvalue=100
compound="Nc1ccn(C2OC(CO)C(F)C2F)c(=O)n1 (stereo unspecified)" systemtested=C8166 readingunit=µM numericvalue=10
compound="Nc1ccn([C@H]2CC[C@@H](CO)O2)c(=O)n1 [ZALCITABINE]" systemtested=C8166 readingunit=µM numericvalue=0.125

Documented IC50 of Nc1ccn([C@@H]2O[C@H](CO)C=C2F)c(=O)n1 : 10

Documented IC50 of Cc1cn([C@H]2C[C@H](N=[N+]=[N-])[C@@H](CO)O2)c(=O)[nH]c1=O [ZIDOVUDINE] : 0.0085

The values you see were collected from ChEMBL document CHEMBL1124867.
